- Test system: L1210 murine leukaemia cells
- experimental.protocol: In vitro cytotoxicity (Microculture Tetrazolium Assay), L1210
- Format: cell-based
- measurement.setup: Mus musculus, 48 h; L1210, 2 days incubation; read-out: IC50, concentration that inhibits the proliferation of the treated cells by 50%
readout: pIC50
# log scale: pIC50 equals minus log10 of the concentration in mol/L

Prompt: State the recorded pIC50 for this entry: O=C1c2scc(-c3ccc(O)c(O)c3)c2-n2cccc21 [Example 8]
Response: 6.65

* * *

- System: IGROV1 human ovarian carcinoma cells
- experimental.protocol: In vitro cytotoxicity (Microculture Tetrazolium Assay), IGROV1
- Type: cell-based
- measurement.setup: IGROV-1, 96 h, IGROV1, 4 days incubation, read-out: IC50, concentration that inhibits the proliferation of the treated cells by 50%
readout: pIC50
# log scale: pIC50 equals minus log10 of the concentration in mol/L

Prompt: Param readout= pIC50; system= IGROV1 human ovarian carcinoma cells; entry= `O=C1c2scc(-c3ccc(O)c(O)c3)c2-n2cccc21` ; returns value.
Response: 7.25
